For each record, write down the corresponding melting temperature.
tested on: HeLa Kyoto; assay: melting temperature (median over replicates), in situ; higher = more thermally stable; conditions: cell cycle stage: mitosis;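 also: HeLa Kyoto cells synchronized by double thymidine or nocodazole block, proteins quantified by TMT10plex mass spectrometry, three independent biological replicates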
Answers are plain numbers, in °C.

MEKTQETVQRILLEPYKYLLQLPGKQVRTKLSQAFNHWLKVPEDKLQIIIEVTEMLHNASLLIDDIEDNSKLRRGFPVAHSIYGIPSVINSANYVYFLGLEKVLTLDHPDAVKLFTRQLLELHQGQGLDIYWRDNYTCPTEEEYKAMVLQKTGGLFGLAVGLMQLFSDYKEDLKPLLNTLGLFFQIRDDYANLHSKEYSENKSFCEDLTEGKFSFPTIHAIWSRPESTQVQNILRQRTENIDIKKYCVHYLEDVGSFEYTRNTLKELEAKAYKQIDARGGNPELVALVKHLSKMFKEENE [GGPS1]; 56

Please examine the following record next.
What is its melting temperature for HeLa Kyoto? Entry: MSLSDWHLAVKLADQPLTPKSILRLPETELGEYSLGGYSISFLKQLIAGKLQESVPDPELIDLIYCGRKLKDDQTLDFYGIQPGSTVHVLRKSWPEPDQKPEPVDKVAAMREFRVLHTALHSSSSYREAVFKMLSNKESLDQIIVATPGLSSDPIALGVLQDKDLFSVFADPNMLDTLVPAHPALVNAIVLVLHSVAGSAPMPGTDSSSRSMPSSSYRDMPGGFLFEGLSDDEDDFHPNTRSTPSSSTPSSRPASLGYSGAAGPRPITQSELATALALASTPESSSHTPTPGTQGHSSGTSPMSSGVQSGTPITNDLFSQALQHALQASGQPSLQSQWQPQLQQLRDMGIQDDELSLRALQATGGDIQAALELIFAGGAP [UBL7]
50.8
